Origin of values: patent US20240103005A1

System: 231MFP cells
Assay: WST-8 cell viability assay
Format: cell-based
Conditions: WST-8, 2 h incubation; read-out: IC50 (cytotoxicity)
pIC50: −log10 of the molar value.
Readout type: pIC50

>>> endpoint_result("C#CCCCCNC(=O)COc1cccc2c1ccn2C(=O)C=C [NAIA-4]")
"< 4.40"
